- system name: UniProtKB P11712
- Sequence (P11712 whole entry): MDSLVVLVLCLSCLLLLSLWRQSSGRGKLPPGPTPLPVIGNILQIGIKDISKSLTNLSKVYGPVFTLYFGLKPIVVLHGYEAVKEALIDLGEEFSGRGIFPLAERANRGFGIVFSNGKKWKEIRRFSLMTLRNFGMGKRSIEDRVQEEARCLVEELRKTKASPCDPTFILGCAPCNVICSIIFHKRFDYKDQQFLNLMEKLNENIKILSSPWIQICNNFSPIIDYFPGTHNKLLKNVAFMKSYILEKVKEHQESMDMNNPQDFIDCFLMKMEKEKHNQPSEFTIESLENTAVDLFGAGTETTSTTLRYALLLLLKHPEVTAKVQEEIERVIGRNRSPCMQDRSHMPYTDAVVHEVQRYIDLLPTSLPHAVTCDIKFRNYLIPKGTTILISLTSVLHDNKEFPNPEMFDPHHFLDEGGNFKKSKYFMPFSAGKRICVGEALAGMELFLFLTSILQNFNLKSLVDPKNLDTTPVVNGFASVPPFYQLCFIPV
- test details: Inhibition of CYP2C9 (unknown origin)
- Assay type: ADME
reported endpoint: IC50

Notebook: [2H]C([2H])([2H])NC1=NC(=O)[C@]2(CCc3ncccc32)c2cc(C(F)(F)F)ccc21 , IC50 read as > 10 µM

====

- test details: Half life in beagle dog at 2 mg/kg, iv measured upto 24 hrs upto 24 hrs by LC-MS/MS analysis
- Assay type: ADME, organism-based, Canis lupus familiaris
- assay context: in vivo
Below, each entry is listed with its recorded half-life.
Give a bare numeral; the unit min is implied.

[[record]]
input_smiles = "[2H]C([2H])([2H])NC1=NC(=O)[C@]2(CCc3ncccc32)c2cc(C(F)(F)F)ccc21"
reported_endpoint = "half-life"
recorded_measurement = 415


Would you kindly look at the next entry?
Notebook: [2H]C([2H])([2H])NC1=NC(=O)[C@]2(CCc3ncccc32)c2cc(C(C)(F)F)ccc21 , half-life read as 394
